Can you tell me IC50 for the items I'm about to list?
# tgt: PAD4 enzyme (Homo sapiens, UniProt Q9UM07)
# Construct: PAD4 enzyme was diluted to 30 nM in Assay Buffer
# Sequence (Q9UM07 whole entry): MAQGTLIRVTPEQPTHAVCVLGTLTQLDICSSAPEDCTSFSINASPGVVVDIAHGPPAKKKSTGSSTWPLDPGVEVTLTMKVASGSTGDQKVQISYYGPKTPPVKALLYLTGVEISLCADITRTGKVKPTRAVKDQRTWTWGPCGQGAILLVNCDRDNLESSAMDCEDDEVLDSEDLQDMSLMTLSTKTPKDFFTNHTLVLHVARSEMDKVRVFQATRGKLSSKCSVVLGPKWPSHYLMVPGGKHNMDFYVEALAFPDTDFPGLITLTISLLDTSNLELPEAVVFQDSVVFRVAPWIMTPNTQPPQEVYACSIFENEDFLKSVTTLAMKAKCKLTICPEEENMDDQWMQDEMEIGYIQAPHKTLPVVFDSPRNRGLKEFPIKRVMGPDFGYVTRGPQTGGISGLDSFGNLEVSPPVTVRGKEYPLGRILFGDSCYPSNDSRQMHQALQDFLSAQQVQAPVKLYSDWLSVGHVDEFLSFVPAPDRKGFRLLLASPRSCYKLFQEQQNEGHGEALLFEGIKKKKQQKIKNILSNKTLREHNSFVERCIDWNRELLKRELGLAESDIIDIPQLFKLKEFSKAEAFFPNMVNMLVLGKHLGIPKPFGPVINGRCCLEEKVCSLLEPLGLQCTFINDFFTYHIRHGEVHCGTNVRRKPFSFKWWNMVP
# test_name: In-vitro measurement for enzymatic PAD4 citrullination inhibition activity (ammonia release)
# Type: biochemical
# test_conditions: read-out: IC50 of inhibition enzymatic activity of PAD4 (Colorimetric assays, Nature Chemical Biology, 2015, 11: 189-191)

Task: Lab note: need IC50 for COc1cc(C(=O)N2C[C@H](N)CC[C@@H]2C)cc2nc(-c3cc4[se]c(-c5ccncc5)nc4n3CC3CC3)n(C)c12 [HH-41] on PAD4 enzyme (Homo sapiens, UniProt Q9UM07), anyone have it?
Output: 100 to 500 nM

Task: Lab note: need IC50 for COc1cc(C(=O)N2C[C@H]3CC[C@@H]2[C@@H]3N)cc2nc(-c3cc4[se]c(-c5ccc(C)cc5)cc4n3CC3CC3)n(C)c12 [HH-56] on PAD4 enzyme (Homo sapiens, UniProt Q9UM07), anyone have it?
Output: 100 to 500 nM

Task: Lab note: need IC50 for Cc1c(-c2cc3[se]c(-c4ccccn4)nc3n2CC2CC2)nn2cc(C(=O)N3C[C@H]4CC[C@@H]3[C@@H]4N)ccc12 [HH-72] on PAD4 enzyme (Homo sapiens, UniProt Q9UM07), anyone have it?
Output: 100 to 500 nM

Task: Lab note: need IC50 for COc1cc(C(=O)N2C[C@H](N)CC(F)(F)C2)cc2nc(-c3cc4[se]c(C)nc4n3CC3CC3)n(C)c12 [HH-13] on PAD4 enzyme (Homo sapiens, UniProt Q9UM07), anyone have it?
Output: > 500 nM

Task: Lab note: need IC50 for COc1cc(C(=O)N2C[C@H](N)C[C@@H](F)C2)cc2nc(-c3cc4[se]c(C5CCCN5)cc4n3CC3CC3)n(C)c12 (stereo partly shown) [HH-53] on PAD4 enzyme (Homo sapiens, UniProt Q9UM07), anyone have it?
Output: 50 to 100 nM

Task: Lab note: need IC50 for COc1cc(C(=O)N2C[C@H](N)CC[C@@H]2C)cc2nc(-c3cc4[se]c(C)nc4n3Cc3ccsc3)n(C)c12 [HH-34] on PAD4 enzyme (Homo sapiens, UniProt Q9UM07), anyone have it?
Output: 50 to 100 nM

Task: Lab note: need IC50 for COc1cc(C(=O)N2C[C@H](N)CC[C@@H]2C)cc2nc(-c3cc4[se]c(C)nc4n3Cc3ccncc3)n(C)c12 [HH-29] on PAD4 enzyme (Homo sapiens, UniProt Q9UM07), anyone have it?
Output: 100 to 500 nM

Task: Lab note: need IC50 for COc1cc(C(=O)N2C[C@H](N)CC[C@@H]2C)cc2nc(-c3cc4[se]c(C5CCCN5)cc4n3CC3CC3)n(C)c12 (stereo partly shown) [HH-54] on PAD4 enzyme (Homo sapiens, UniProt Q9UM07), anyone have it?
Output: 50 to 100 nM

Task: Lab note: need IC50 for COc1cc(C(=O)N2C[C@H](N)CC[C@@H]2C)cc2nc(-c3cc4[se]c(C)nc4n3CC(C)(C)C)n(C)c12 [HH-22] on PAD4 enzyme (Homo sapiens, UniProt Q9UM07), anyone have it?
Output: 100 to 500 nM

Task: Lab note: need IC50 for COc1cc(C(=O)N2C[C@H](N)CC[C@@H]2C)cn2nc(-c3cc4[se]c(C)nc4n3CC3CC3)c(C)c12 [HH-67] on PAD4 enzyme (Homo sapiens, UniProt Q9UM07), anyone have it?
Output: 100 to 500 nM
